Recorded values, source PubChem BioAssay (NCI).

# Test system: HOP-92 NSCLC
# experiment description: NCI-60 one-dose screen, 48 h (100 = growth as untreated, 0 = no growth, -100 = all killed)
# measurement setup: 10 µM unless noted
The panel holds about 83,000 compounds, 20% with a hit somewhere; the sample as a whole holds those more often. Activity calls are given as the source filed them. The calls were made as follows: active = growth percent below 10; inactive = the rest.
experimental readout: growth

Take a look at these entries with their results.
[
  {
    "mol smiles": "NC(=O)c1cccc([C@@H]2O[C@H](CO)[C@@H](O)[C@H]2O)c1",
    "growth": "52.4% (inactive)"
  },
  {
    "mol smiles": "Cc1ccc(/C=C(\\C#N)n2nnc3cc(F)c(F)cc32)cc1",
    "growth": "-5.1% (active)"
  },
  {
    "mol smiles": "O=c1ccc(=O)n(-c2nc(-c3ccc([N+](=O)[O-])cc3)cs2)[nH]1",
    "growth": "103% (inactive)"
  },
  {
    "mol smiles": "CCCCNC(=O)Oc1ccc(/C(=C(/C)Cc2ccc(OC)cc2)c2ccc(OCCN3CCCCCC3)cc2)cc1",
    "growth": "53.3% (inactive)"
  },
  {
    "mol smiles": "COc1ccc(C(=O)/C=C/c2ccc(N3CCCCC3)cc2)cc1OC",
    "growth": "69.9% (inactive)"
  }
]

Query: Give growth (HOP-92 NSCLC) of the following molecule: "N=C(N)c1ccc(-c2ccc(-c3cc(Cl)cc(Cl)c3)s2)nc1"
Reply: 87.8% (inactive)

Query: Give growth (HOP-92 NSCLC) of the following molecule: "C[C@H](C(=O)N(CCc1ccc(Cl)c(Cl)c1)Cc1cncs1)[C@@H]1CC[C@H](C[C@H](C)n2cc(CN3CCC(c4ccc(Cl)cc4)CC3)nn2)O1"
Reply: 106% (inactive)

Query: Give growth (HOP-92 NSCLC) of the following molecule: "O=C1NC(=O)/C(=C/c2c(-c3ccccc3)nc3sc(COc4ccccc4)nn23)S1"
Reply: 66.4% (inactive)

Query: Give growth (HOP-92 NSCLC) of the following molecule: "O=C(Nc1ccccc1[N+](=O)[O-])c1ccc(Cl)c(Cl)c1"
Reply: 69.7% (inactive)
